Target: T1, Recombinant HLA-G antigen (human, UniProt P17693 25-308, limits assumed)
T1 construct: also called recombinant HLA-G protein
Experiment summary: BLI (Octet), antibody on anti-human IgG Fc capture biosensor, HLA-G antigen 100 to 1.56 nM
Outcome measure: koff (s⁻¹)
One number for each entry, in s⁻¹.

Query: Give its koff value. Item: 2F1_LS#17 (antibody, human IgG1, kappa, V domains shown) VH: EVQLVESGGGLVQPGGSLRLSCAASGFTFSSYAMSWVRQAPGKGLEWVSRISGSGGYIYYADSVKGRFTISRDNSKNTLYLQMNSLRAEDTAVYYCAKEGTSSYRGWMDVWGQGTLVTVSS VL: DIQMTQSPSSLSASVGDRVTITCRASQSISNYLNWYQQKPGKAPKLLIYAASRLQSDVPSRFSGSGSGTDFTLTISSLQPEDFATYYCQQSYSTPWTFGQGTKVEIKR
Reply: 0.000138
